Numbers sourced from FireProtDB (doi:10.1002/pro.5560070624).

Exercise: state measured denaturant midpoint (higher = more stable) for each of the variants provided.
B1: Ferrienterobactin receptor, P05825 (parent)
chain: MNKKIHSLALLVNLGIYGVAQAQEPTDTPVSHDDTIVVTAAEQNLQAPGVSTITADEIRKNPVARDVSKIIRTMPGVNLTGNSTSGQRGNNRQIDIRGMGPENTLILIDGKPVSSRNSVRQGWRGERDTRGDTSWVPPEMIERIEVLRGPAAARYGNGAAGGVVNIITKKGSGEWHGSWDAYFNAPEHKEEGATKRTNFSLTGPLGDEFSFRLYGNLDKTQADAWDINQGHQSARAGTYATTLPAGREGVINKDINGVVRWDFAPLQSLELEAGYSRQGNLYAGDTQNTNSDSYTRSKYGDETNRLYRQNYALTWNGGWDNGVTTSNWVQYEHTRNSRIPEGLAGGTEGKFNEKATQDFVDIDLDDVMLHSEVNLPIDFLVNQTLTLGTEWNQQRMKDLSSNTQALTGTNTGGAIDGVSTTDRSPYSKAEIFSLFAENNMELTDSTIVTPGLRFDHHSIVGNNWSPALNISQGLGDDFTLKMGIARAYKAPSLYQTNPNYILYSKGQGCYASAGGCYLQGNDDLKAETSINKEIGLEFKRDGWLAGVTWFRNDYRNKIEAGYVAVGQNAVGTDLYQWDNVPKAVVEGLEGSLNVPVSETVMWTNNITYMLKSENKTTGDRLSIIPEYTLNSTLSWQAREDLSMQTTFTWYGKQQPKKYNYKGQPAVGPETKEISPYSIVGLSATWDVTKNVSLTGGVDNLFDKRLWRAGNAQTTGDLAGANYIAGAGAYTYNEPGRTWYMSVNTHF

# Variants of: B1
# TEST_CONTEXT: Escherichia coli (strain K12); pH 7; 25 °C; GdnHCl; ESR; MOPS 20 mM; structure 1FEP; whole UniProt chain shown
One number for each entry, in M.

Some variants with known denaturant midpoint (higher = more stable) results, for comparison:
Q278C
1.91
L266C
2.28
S276C
1.29
E270C
1.65
E272C
1.57

Give measured denaturant midpoint (higher = more stable) for every item shown.
1. G274C
2. S268C

Response:
1.5
1.77
